- Tested on: WPMY1-CANX-COX4
- assay_method_text: lowest phenotypically active concentration; higher = less potent
- assay_context: treatment time: 24 h
Counter-ions that a name gives are not always drawn.
reported_endpoint: lowest phenotypically active concentration (µM)
Numeric only. Scale: µM

Give a short answer stating reported lowest phenotypically active concentration for `CC(C)n1c(/C=C/[C@@H](O)C[C@@H](O)CC(=O)O)c(-c2ccc(F)cc2)c2ccccc21` .
3

Provide one value: measured lowest phenotypically active concentration of C[C@@H]1CN(Cc2ccc(F)cc2)[C@@H](C)CN1C(=O)c1cc2c(C(=O)C(=O)N(C)C)cn(C)c2cc1Cl [SCIO 469 hydrochloride]
3

// fetch lowest phenotypically active concentration given entry `O=C(Nc1ccccc1)c1cc([N+](=O)[O-])ccc1Cl`
9

----------
Consider the following molecules; for each one, report its phenotypically active.
- System: WPMY1-CANX-COX4
- assay_method_text: phenotypically active (imaging signature differs from DMSO and reproducible) at any of 0.3-9 uM (binary (1 = active, 0 = inactive)); higher = active
- assay_context: treatment time: 24 h
Write the number on its own, no unit after it.

Answer with reported phenotypically active of COc1cc2c3cc1Oc1cc(ccc1O)C[C@@H]1c4c(cc(OC)c(O)c4Oc4ccc(cc4)C[C@@H]3N(C)CC2)CC[N+]1(C)C [(+)-Tubocurarine chloride]
0

Entry CC/C(=C(/c1ccccc1)c1ccc(OCCN(C)C)cc1)c1ccccc1 [tamoxifen] needs its phenotypically active filled in; supply it.
1

Find the measured phenotypically active of `N#Cc1cccc(-c2c[nH]c3ncnc(N4CCOCC4)c23)c1` and report it.
1

Consider the molecule CCOC(=O)[C@H](CCc1ccccc1)N[C@@H](C)C(=O)N1Cc2ccccc2C[C@H]1C(=O)O [quinapril] . State its measured phenotypically active.
0

----------
- Test system: WPMY1-ACTB-RAB5A
- assay_method_text: lowest phenotypically active concentration; higher = less potent
- assay_context: treatment time: 24 h
reported_endpoint: lowest phenotypically active concentration

State its lowest phenotypically active concentration for this molecule: CC[C@]1(O)C[C@@H]2CN(CCc3c([nH]c4ccccc34)[C@@](C(=O)OC)(c3cc4c(cc3OC)N(C=O)[C@H]3[C@@](O)(C(=O)OC)[C@H](OC(C)=O)[C@]5(CC)C=CCN6CC[C@]43[C@@H]65)C2)C1 [vincristine]
≤ 0.3 µM

Determine its reported lowest phenotypically active concentration: CC[C@H](Nc1ncnc2[nH]cnc12)c1nc2cccc(F)c2c(=O)n1-c1ccccc1 [idelalisib]
9 µM

Give recorded lowest phenotypically active concentration. O=C(CCCCCN1C(=O)c2cccc3cccc(c23)C1=O)NO [Scriptaid]
1 µM

Please supply the value of reported lowest phenotypically active concentration for the item `Cc1c(CN2CCN(C(=O)[C@H](C)O)CC2)sc2c(N3CCOCC3)nc(-c3cnc(N)nc3)nc12`
≤ 0.3 µM

----------
- Tested on: HepG2-ACTB-RAB5A
- assay_method_text: phenotypically active (imaging signature differs from DMSO and reproducible) at any of 0.3-9 uM (binary (1 = active, 0 = inactive)); higher = active
- assay_context: treatment time: 24 h
Where a name gives a salt, the structure may show the parent alone.
Would you mind telling me the reported phenotypically active of each entry?
In your answer, state the number alone without any accompanying words.

# return recorded phenotypically active for input CC(C(=O)O)c1ccc(C(=O)c2cccs2)cc1 (centres undefined) [suprofen]
0

Answer with the recorded phenotypically active of N#Cc1ccc(C(c2ccc(C#N)cc2)n2cncn2)cc1 [Letrozole] only.
0

Return value of phenotypically active for input `COc1ccc(-c2cc3c(C)nc(N)nc3n([C@H]3CC[C@H](OCCO)CC3)c2=O)cn1` , no commentary.
1

Specify measured phenotypically active for C#C[C@]1(O)CC[C@H]2[C@@H]3CCC4=CCCC[C@@H]4[C@H]3C(=C)C[C@@]21CC [desogestrel] .
0

Entry Cc1ccc(OCCSc2ncccn2)c(Br)c1 [ZLN 024 hydrochloride] needs its phenotypically active filled in; supply it.
0

State, in one line, measured phenotypically active of `CC(C)(C)NS(=O)(=O)c1cncc(-c2cc(F)c3nc(N)nn3c2)c1`
0

For the compound Cc1cc(Nc2cc(C)c(C#N)c(NC(C)CCCC(C)(C)O)n2)n[nH]1 (centres undefined) [TC-A 2317 hydrochloride] , give its measured phenotypically active value.
1

// Input: `CC1(C)CC(=O)c2c(S(C)(=O)=O)sc(Cl)c2C1` . Output its phenotypically active only.
0

Given the compound NCCCC(O)(P(=O)(O)O)P(=O)(O)O [alendronate] , write its reported phenotypically active.
0

Source of measurements: the supplement of paper PMC7411054
